Target under test: T1, synthetic amyloid-like fibrils of recombinant amyloidogenic λ6 variable domain protein (rVλ6Wil)
T1 construct: domain: λ6 variable domain; Fibrillar aggregate of many copies; also called rVλ6Wil fibrils; rVλ6Wil synthetic fibrils
Protocol notes: EuLISA, substrate coated on plate
Method: To perform europium-linked immunosorbent assays (EuLISAs), suspensions of rVλ6Wil fibrils (sonicated) were prepared at 0.83 μM in phosphate buffered saline (PBS). The fibrils were coated onto the wells of a 96-well microplate by adding 50 μL to each well. The plates dried at 37° C. overnight. […] Time-resolved fluorescence emission was detected using a microplate reader (Wallac). […]

Binder: murine Ig-peptide fusion Igp5 (murine 11-1F4 with peptide p5 fused to the N-terminus of the light chain) (antibody, Antibody-peptide fusion; unlabelled in the EuLISA; also called mIgp5; mIgG-p5; not shown: murine 11-1F4 (IgG1) CH1 followed by murine IgG2a CH2-CH3 (pFUSE-mIgG2A-Fc); murine 11-1F4 kappa constant region (CL)) heavy: QVQLKESGPGLVAPSQSLSITCTVSGFSLSSYGVSWVRQPPGKGLEWLGVIWGDGSTNYHPNLMSRLSISKDISKSQVLFKLNSLQTDDTATYYCVTLDYWGQGTSVTVSS light: AQAGQAGQAQGGGYSKAQKAQAKQAKQAQKAQKAQAKQAKQVTPTVDVVMTQTPLSLPVSLGDQASISCRSSQSLVHRNGNTYLHWYLQKPGQSPKLLIYKVSNRFSGVPDRFSGSGSGTDFTLKISRVEAEDLGLYFCFQTTYVPNTFGGGTKLEIK
Max (maximal level of binding): 58.5

Binder: VH6/VL3-p5 (humanized VH6/VL3 with peptide p5 fused to the N-terminal of the light chain) (antibody, V domains shown) VH: QVQLQESGPGLVKPSETLSLTCTVSGFSLSSYGVSWVRQPPGKGLEWLGVIWGDGSTNYHPNLMSRLSISKDTSKNQFSLKLSSVTAADTATYYCVTLDYWGQGTSVTVSS VL: DVVMTQSPLSLPVTLGQPASISCRSSQSLVHRNGNTYLHWYLQRPGQSPRLLIYKVSNRFSGVPDRFSGSGSGTDFTLKISRVEAEDVGLYFCFQTTYVPNTFGGGTKLEIK
Max (maximal level of binding): 65.3

Binder: chimeric (c) 11-1F4 (antibody, V domains shown, also called ch11-1F4; ci1-1F4) VH: QVQLKESGPGLVAPSQSLSITCTVSGFSLSSYGVSWVRQPPGKGLEWLGVIWGDGSTNYHPNLMSRLSISKDISKSQVLFKLNSLQTDDTATYYCVTLDYWGQGTSVTVSS VL: DVVMTQTPLSLPVSLGDQASISCRSSQSLVHRNGNTYLHWYLQKPGQSPKLLIYKVSNRFSGVPDRFSGSGSGTDFTLKISRVEAEDLGLYFCFQTTYVPNTFGGGTKLEIK
Max (maximal level of binding): 63.9
